# assay details: NCI Yeast Anticancer Drug Screen. Data for the rad50 strain (AID 155);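 also: 0% = growth of vehicle-only cultures of the same strain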
# condition notes: S. cerevisiae rad50 strain growth inhibition; at 50.0 µM; active compounds read high
About 79,000 compounds went through this panel and 15% of them were active in at least one assay; those are over-represented in the sample as a whole.
Exercise: for every item that follows, state its recorded growth inhibition.
Only the number, expressed in %, is required.

Recorded growth inhibition of CCOc1ccnc2c(C)c3c([nH]c4ccccc43)c(C)c12 , please.
99.2

growth inhibition lookup needed for C=C(C)C1CC2=C(O1)C(=O)c1ccccc1C2=O (stereo not given) , thanks.
91.9

Given the molecule CCCCCCCCCCCCCCNCCN , what is its reported growth inhibition?
88.1

Form field: reported growth inhibition of O=C1CSC(=S)N1c1ccc(F)cc1F
89.8

Name the reported growth inhibition value associated with the molecule CCOC(=O)c1cc2c(nc1NCc1ccc(OC)c(OC)c1)/C(=C/c1ccccc1)CCCC2
90.2

---

# assay details: NCI Yeast Anticancer Drug Screen. Data for the mlh1 rad18 strain (AID 175)
# condition notes: S. cerevisiae mlh1 rad18 strain growth inhibition; at 50.0 µM
The panel holds about 79,000 compounds, 15% with a hit somewhere; the sample as a whole holds those more often. Activity calls are given as the source filed them. No stated cut-off is given here; in the data, active means growth inhibition above about 70%; inactive means the rest.
Classes to choose from: active, inactive

I'd appreciate the recorded outcome for O=C(c1ccccc1)C1Cc2ccccc2C1=O (stereo not given) from this test.
active

I would be grateful if you could indicate the recorded call for CCCCCCC(Sc1n[nH]c(=O)[nH]c1=O)C(=O)OCC (stereo not given) .
inactive

What did the test return for NC1NCCC(=O)N1CCc1c[nH]c2ccccc12 (stereo not given) ?
inactive

Could you please tell me the result logged for O=C1CSC(c2ccc([N+](=O)[O-])cc2)N1c1ccc(-c2ccc(-n3c(-c4ccccc4)nc4ccccc4c3=O)cc2)cc1 (stereo not given) in this assay?
active

Please indicate how the test categorized O=C(Nc1cc(Cl)c(Cl)cc1Cl)C(=O)C(C(=O)c1ccc2ccccc2c1)C1OC(=O)c2ccccc21 (stereo not given) .
inactive

I'd appreciate the recorded outcome for NCCCNCc1c2ccccc2c(CNCCCN)c2ccccc12 from this test.
active

Please indicate how the test categorized CCOc1ccc(N=Nc2ccccc2)cc1 .
inactive

Dear all, I need the recorded test outcome for Cc1c(O)c(Br)c(C)c(O)c1Br (tested in a mixture with another compound) , thank you.
inactive

Hi, do you know how ON(Cc1ccccc1)C(=S)c1ccccc1 came out in this test?
active

What outcome does the record of this test show for OC(/C=C/c1ccccc1)(c1ccccc1)c1nc2ccccc2s1 (stereo not given) ?
inactive

Please indicate how the test categorized O=c1ccc2nc3ccccc3ccc-2c1 .
inactive

Which outcome did this test record for the molecule O=C1OCCCN1/N=C/c1ccc([N+](=O)[O-])o1 ?
active

Call for entry C/C=C1\CC(C)(CC)C(C#N)(C#N)C(N)=C1C#N (stereo not given) :
inactive

Name the outcome recorded for COC(=O)c1ccccc1CC1Cc2cccc(C)c2C1=O (stereo not given) in the assay.
active

I'd appreciate the recorded outcome for COc1cc(C(c2cc3c(cc2O)OCO3)N2CCN(C(c3cc(OC)c(OC)c(OC)c3)c3cc4c(cc3O)OCO4)CC2)cc(OC)c1OC (stereo not given) from this test.
inactive

// outcome(item) with item = Clc1ccc(CSCCc2ccncc2)cc1Cl
active

Query: recorded result category for Nc1cc(=O)[nH]c(=S)[nH]1.[Pd] in this test
inactive

How did this test come out for CN(C)c1ccc(C2(Cl)c3ccccc3N(Cc3ccccc3)c3ccccc32)cc1 ?
active

Please state the recorded outcome for this molecule: O=C1C/C(=C\c2ccccc2)C(=O)c2ccccc2N1
inactive

Could you please tell me the result logged for COc1ccc(/C=N/n2c(C)nc3c(sc(=S)n3-c3ccccc3)c2=O)cc1 in this assay?
inactive

For CN(C)c1nc(Cl)nc2c1ncn2C1OCC(O)C(O)C1O (stereo not given) , what call appears in the results of this test?
inactive

Status in this test for CC1(C)CC(O)C(O)C1 (stereo not given) ?
inactive

Write down the call the test reported for this molecule. Item: COC(=O)CCC(=O)NCCc1ccc2c([nH]c3ccccc32)c1C
active

Record request — test call for O=C(Nc1ccccc1)OCCN=c1c2ccccc2ccc2ccccc12
active

Called result for CC(Br)C(=O)c1ccc2cc(Cl)c3ccccc3c2c1 (stereo not given)
inactive

Could you check what this test reported for CC(C)(c1ccc(OC#N)cc1)c1ccc(OC#N)cc1 ?
inactive

Which result was noted for this molecule in the test: CCOC(=O)C[P+](c1ccc(C)cc1)(c1ccc(C)cc1)c1ccc(C)cc1
active

Just curious, what result did COc1cccc(/C=C2\CCCc3ccccc3C2=O)c1 get here?
inactive

Which outcome did this test record for the molecule CCCCCCCCCCCCCCCCCC[n+]1ccc(C(C)CC)cc1 (stereo not given) ?
active

Check the results log: what was the call for Oc1cc2c(cc1C(c1ccc(F)cc1)N1CCCCC1)OCO2 (stereo not given) ?
inactive

Which outcome was assigned to O=[N+]([O-])C1=Cc2cc(Cl)ccc2OC1c1cccc2ccccc12 (stereo not given) in this test?
active

Please state the recorded outcome for this molecule: CCCCCCCCCCCCNCc1ccc2c(c1)OCO2
active

Record request — test call for C(=NCCC[Si]12OCCN(CCO1)CCO2)c1ccc(C=NCCC[Si]23OCCN(CCO2)CCO3)cc1
inactive

Which outcome did this test record for the molecule COc1cc(CNC(=O)CCCCCCCCCCSC#N)ccc1O ?
active

Hello, I am checking results. What call was entered for Cn1cccc1C(/C=C/c1ccccc1[N+](=O)[O-])c1cccn1C ?
inactive

I would be grateful if you could indicate the recorded call for Cc1cc(Cc2ccc(Cl)cc2)ccc1O .
inactive

What did the test return for COc1ccc2cc(C3CCCC3(C)CC(=O)O)ccc2c1 (stereo not given) ?
inactive

State the result this test recorded for Cc1cc2c(c(C(N)=O)c1C)-c1cccc(F)c1C2=O .
active

Just curious, what result did CC(OC(=O)Nc1cccc(Cl)c1)c1ccccc1 (stereo not given) get here?
active

Each molecule tested received a call. Report the one for Cc1ccc(C)c(N2C/C(=N\NC(=O)CC#N)C(c3nc4ccccc4s3)C(=O)C2=O)c1 (stereo not given) .
inactive

---

# assay details: NCI Yeast Anticancer Drug Screen. Data for the cln2 rad14 strain (AID 165);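 also: 0% = growth equal to vehicle treated cultures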
# condition notes: S. cerevisiae cln2 rad14 strain, at 50.0 µM
Compounds without any hit were thinned out: in the full panel of roughly 79,000, 15% have a hit. The source made the active and inactive calls. Rule as the data show it: active = growth inhibition above about 70%; inactive = the rest.
Choose the fitting class; nothing outside active, inactive is accepted.

Can you look up the reported call for Clc1ccc(CN2COc3c(ccc4cccnc34)C2)cc1 for me?
active

Query: recorded result category for NCc1cccc(O)c1O in this test
inactive

Check the results log: what was the call for CCCCCCCCCCCCCCCCCC[N+]1(C)CCC[N+](C)(CCCCCCCCCCCCCCCCCC)CC1 (stereo not given) ?
inactive

Any idea what this test logged for CN1C(OCc2ccccc2)c2c(ccc3c2OCO3)C2C=Cc3cc4c(cc3C21)OCO4 (stereo not given) ?
active

Called result for C[C@H](CCC1=NCCN1)[C@H]1CC[C@H]2[C@@H]3CC[C@@H]4C[C@H](O)CC[C@]4(C)[C@H]3C[C@H](O)[C@]12C
active

---

# assay details: NCI Yeast Anticancer Drug Screen. Data for the sgs1 mgt1 strain (AID 161);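 also: 0% = growth of cultures given vehicle only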
# condition notes: S. cerevisiae sgs1 mgt1 strain, at 50.0 µM (retest, dose inferred, filed as 5.0), active compounds read high
This is part of a sample that, as a whole, favours compounds with a hit. Of some 79,000 tested, about 15% had one in any assay. The source made the active and inactive calls. No stated cut-off is given here; in the data, active means growth inhibition above about 70%; inactive means the rest.
experimental endpoint: growth inhibition

Could you tell me which growth inhibition is on file for CCC(CC)=NNc1ccc([N+](=O)[O-])cc1 ?
97% (active)

Need growth inhibition, item CC1(C)C/C(=N/NC(N)=S)C(=NO)/C(=N\NC(N)=S)C1
61% (inactive)

If you can, please state the reported growth inhibition value of Cc1cc(Cc2cccc(Cl)c2)ccc1O .
99% (active)

Param item = BrC1(c2ccccc2)C[n+]2c(-c3ccccc3)cc(-c3ccccc3)cc2-c2ccccc21 (stereo not drawn) ; retrieve measured growth inhibition.
98% (active)

Report growth inhibition for O=C1CCCCC1=C(I)I please.
13% (inactive)

Item O=C(CCCCCCCCCCc1ccccc1)c1ccc(Cl)cc1 has what recorded growth inhibition?
89% (active)

Given OC1c2cc(Cl)cc(Cl)c2OC2(N3CCCC3)CCCCC12 (stereo not drawn) , state its recorded growth inhibition.
87% (active)

Fill blank: measured growth inhibition of the compound O=C1/C(=C/c2cccc([N+](=O)[O-])c2)CCCc2ccccc21 is ____.
94% (active)

---

# assay details: NCI Yeast Anticancer Drug Screen. Data for the mec2-1 strain (AID 157)
# condition notes: S. cerevisiae mec2-1 strain, at 50.0 µM, active compounds read high
About 79,000 compounds went through this panel and 15% of them were active in at least one assay; those are over-represented in the sample as a whole.
Kindly state growth inhibition for each of the entries shown.
Give the quantity in %, number only.

Given the entry CCc1nc(N)nc(N)c1-c1ccc(NCCc2ccccc2)c([N+](=O)[O-])c1 , report its measured growth inhibition.
-2.75

Record request: growth inhibition value, item O=c1ccc2c(COc3ccc(Cl)cc3Cl)c3ccc(O)cc3oc-2c1
45.8

Would you kindly share the measured growth inhibition for CCCOC(=O)CCCC(=O)N(CC)CC ?
-7.7

Would you mind telling me what growth inhibition value was observed for CCC(C)COC(=O)c1ccc([N+](=O)[O-])cc1 (configuration not stated) ?
16.4

Recorded growth inhibition of c1ccc([B-](c2ccccc2)(c2ccccc2)c2ccccc2)cc1 , please.
95

I am curious: what growth inhibition value has been reported for COc1ccc(CSC(=S)Nc2cc(C)c(C)cc2[N+](=O)[O-])cc1 ?
97.8

Quick check: growth inhibition of CCOC(=O)Cc1csc(/N=C\c2c(O)c3ccccc3oc2=O)n1 ?
-32.4
